The measured values listed here are drawn from PubChem BioAssay AID1209.

Molecular target: Mannose-6-phosphate isomerase (Homo sapiens) (UniProt P34949)
Sequence (P34949 whole entry, looked up): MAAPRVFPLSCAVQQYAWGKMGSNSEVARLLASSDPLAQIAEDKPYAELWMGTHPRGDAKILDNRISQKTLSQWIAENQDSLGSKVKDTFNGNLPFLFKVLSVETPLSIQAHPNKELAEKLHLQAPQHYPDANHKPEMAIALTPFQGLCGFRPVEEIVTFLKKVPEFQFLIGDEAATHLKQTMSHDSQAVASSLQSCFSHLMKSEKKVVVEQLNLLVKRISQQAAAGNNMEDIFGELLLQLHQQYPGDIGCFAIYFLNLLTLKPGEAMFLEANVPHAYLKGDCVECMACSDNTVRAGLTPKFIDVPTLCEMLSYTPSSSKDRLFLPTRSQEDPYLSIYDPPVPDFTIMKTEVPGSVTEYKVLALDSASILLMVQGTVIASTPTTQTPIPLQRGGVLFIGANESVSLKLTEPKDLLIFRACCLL
Experiment: inhibitors of human PMI, primary screen, biochemical, fluorescence intensity, coupled assay (AID 1209);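 also: plate controls were DMSO vehicle for no effect and wells lacking substrate for full effect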
Conditions: purified PMI enzyme, at 20 µM, stronger effect = higher value
About 810 (0.43%) of roughly 190,000 compounds were called active. The list comes from a sample in which actives are over-represented; it also holds close analogues and randomly drawn compounds.
measure_name: inhibition (%)

>>> result("O=c1c2ccccc2sn1-c1ccc(S(=O)(=O)N2CCCC2)cc1")
42.4
>>> result("O=C(NNC(=O)c1cc(OCC(F)(F)F)ccc1OCC(F)(F)F)c1ccc(Cl)c(Cl)c1")
16.5
>>> result("O=C1CCc2cc(S(=O)(=O)N3CCN(c4ccccc4F)CC3)ccc2N1")
6
>>> result("O=S(=O)(NCCNS(=O)(=O)c1cccs1)c1cccs1")
-15.3
>>> result("Oc1ccc(-c2csc(Nc3ncccn3)n2)cc1")
-4.9
>>> result("O=C(NNC(=S)Nc1ccc(Cl)cc1)c1cccs1")
-1.6
>>> result("Cc1ccc(C)n1-c1cc(S(=O)(=O)N2CCOCC2)ccc1N1CCCC1")
9.8
>>> result("Cc1ccc(Nc2nnns2)cc1")
57.4
>>> result("CCOC(=O)C(Nc1ccc2ccccc2c1)C(=O)OCC")
60.3
>>> result("O=C(/C=C/c1ccc([N+](=O)[O-])cc1)N(c1ccccn1)C1CCCCC1")
-38.1
>>> result("Cc1ccc(S(=O)(=O)CCC(=O)Nc2ccc(F)cc2)cc1")
6.5
>>> result("CC1=C(C(=O)Nc2ccccc2C)C2(CCCCC2)C(C(N)=O)C(=S)N1 (stereo not drawn)")
-53.8
>>> result("COCCNC(=O)c1ccc(CN2CCOCC2)cc1")
-8.4
>>> result("Cc1cccnc1Nc1nc(-c2ccc(O)cc2O)cs1")
10.6
>>> result("CC(C)C(=O)Nc1ccccc1C(=O)OCC(=O)c1ccc2c(c1)OCCO2")
12.7
>>> result("CC1(C)CC(=S)Nc2ccccc2S1")
41.8
>>> result("Cc1nn(C)cc1C(=O)Nc1cc(Oc2ccc(Cl)cc2)cc([N+](=O)[O-])c1")
-2.9
>>> result("COc1cc(C(=O)NNC(=O)c2ccc(NC(C)=O)cc2)cc(OC)c1OC")
-4.2
>>> result("CC1(C)CNc2cc([N+](=O)[O-])ccc2S1")
1.5
>>> result("O=C(CSc1nc2cc(S(=O)(=O)N3CCOCC3)ccc2o1)Nc1c(F)cccc1F")
31.9
>>> result("COc1ccc(-c2csc(Nc3ccc(C)cn3)n2)cc1")
-1.5
>>> result("O=C(NNC(=S)Nc1ccccc1)c1cccs1")
-13.9
>>> result("CCCOc1ccc(CNC(=S)NCc2ccc(OC(C)C)cc2)cc1")
6.1

====

Listed here are compounds together with their documented inhibition.
Biological target: Mannose-6-phosphate isomerase (Homo sapiens)
Assay: inhibitors of human PMI, primary screen, biochemical, fluorescence intensity, coupled assay (AID 1209);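 also: plate controls were DMSO vehicle for no effect and wells lacking substrate for full effect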
Settings: purified PMI enzyme, at 20 µM, stronger effect = higher value
Among all 190,000 compounds or so, about 810 (0.43%) were called active. The full list was thinned out, with actives kept by preference.
measure_name: inhibition (%)

>>> result("CCOC(=O)N1CCN(Cc2ccccn2)CC1")
3.7
>>> result("CCCC(=O)n1nc(-c2cccnc2)nc1NCc1ccc(OC)cc1")
86.5
>>> result("CN(C)S(=O)(=O)c1cccc(C(=O)NCCc2ccccc2)c1")
3.3
>>> result("CCOC(=O)C1CCN(Cc2c(O)ccc3ccccc23)CC1")
28.5
>>> result("CCOc1cc(CNc2ccc3[nH]c(=O)[nH]c3c2)ccc1OCC(=O)NC(C)(C)C")
75
>>> result("Cc1ccc(N=Cc2ccc(O)cc2O)cc1F")
9.4
>>> result("CCOC(=O)c1sc(/N=C/c2c(O)ccc3ccccc23)cc1C")
58.3
>>> result("Oc1c(CN2CCOCC2)ccc2ccccc12")
50.8
>>> result("Oc1ccc(C=Nc2ccc3ncccc3c2)c(O)c1")
68.4
>>> result("CNC(=S)N(CCc1c(C)[nH]c2ccc(OC)cc12)Cc1cccnc1")
16
>>> result("CCC(=O)n1nc(-c2cccnc2)nc1NCc1ccc(OC)cc1")
8.8
>>> result("CCc1ccc(NC(=S)Nc2cccc3cnccc23)cc1")
40.2
>>> result("O=[N+]([O-])c1ccc2c(c1Nc1ccccc1)=NC1(CCCCC1)N=2")
46.2
>>> result("COC(=O)c1cc(=O)nc2sc(-c3ccccc3)nn12")
-2.3
>>> result("CCCC(=O)n1nc(-c2cccnc2)nc1NCc1ccccc1")
3.3
>>> result("CCOc1ccc(NC(=S)Nc2cccc3cnccc23)cc1")
64.9
>>> result("COc1cc(CNc2ccc3[nH]c(=O)[nH]c3c2)ccc1OCC(=O)NC(C)(C)C")
82.4
>>> result("Oc1ccc(C=Nc2cccc3ncccc23)c(O)c1")
46.8
>>> result("CC1CCCN(S(=O)(=O)c2ccccc2[N+](=O)[O-])C1 (stereo not drawn)")
9.5
>>> result("C=CCOc1c(Cl)cc(CNc2ccc3[nH]c(=O)[nH]c3c2)cc1OC")
26.3
>>> result("OCc1ccccc1N=c1ssnc1Cl")
78.3
>>> result("COc1ccc(/C=N/NC(=O)c2ccc(N)cc2)cc1Cn1cc([N+](=O)[O-])cn1")
2.9
>>> result("COc1ccc(/C=N\\NC(=O)c2cc(O)c(O)c(O)c2)cc1CN1CCN(c2ccc(F)cc2)CC1")
58.1
>>> result("CN(C)c1ccc(C(=S)NCc2ccco2)cc1")
50.7
>>> result("CCn1c2ccccc2c2nc3cc(S(=O)(=O)N4CCOCC4)ccc3nc21")
70.3
>>> result("O=C(NNC(=O)C1C2CCC(C2)C1C(=O)O)c1cccc(Cl)c1 (stereo not drawn)")
-7.9
>>> result("OCc1c(Cl)nc2ccccn12")
-8.7
>>> result("COc1ccc(/C=N\\NC(=O)c2cccc([N+](=O)[O-])c2)cc1Cn1cc([N+](=O)[O-])cn1")
10
